System: Plasmodium berghei
Measurement description: Screen against P. berghei liver stage (PbLuc), transformed with Luciferase, at 10uM
Assay type: functional, HepG2
Conditions: tested at 10 uM
Hit rate of the full screen: of about 69,000 compounds, about 8,600 (12%) showed an effect of 50% or more. Many of the other results were omitted from the sample, so strong results are more common in it than they were.
Assay endpoint: INHIBITION

-- ask Quick check: INHIBITION of COc1cc(CN2C[C@@H]3CNC(=O)[C@H](C)[C@@H]3C2)cc(OC)c1 ?
-- reply -24.5%

-- ask Quick check: INHIBITION of NC1CCCc2c1cnn2-c1cc(F)cc(F)c1 (stereo unspecified) ?
-- reply -19.1%

-- ask Quick check: INHIBITION of Cc1ccc(S(=O)(=O)NC(=O)CCC(F)(F)F)cc1N(C)C ?
-- reply 13.139%

-- ask Quick check: INHIBITION of O=C(CCc1cscn1)N1CCCC(n2cncn2)C1 (stereo unspecified) ?
-- reply 31.8%

-- ask Quick check: INHIBITION of O=S(=O)(c1ccc(F)c(F)c1)n1cc(Cl)cn1 ?
-- reply 42.1%

-- ask Quick check: INHIBITION of CC(C)C(NC(=O)Nc1ccc(F)cc1)C(=O)N(C)C (stereo unspecified) ?
-- reply 18.7%

---

System: Plasmodium berghei
Measurement description: Screen against P. berghei liver stage (PbLuc), transformed with Luciferase, at 10uM
Format: functional, HepG2
Conditions: tested at 10 uM
About 8,600 (12%) of roughly 69,000 compounds showed an effect of 50% or more. The entries come from a sample that favours strong results as a whole.
Exercise: state measured INHIBITION for each of the molecules provided.
Response body: numeric value in %, unit text excluded.

-- ask Quick check: INHIBITION of Cc1ccc(CN2CCC3(CC2)CC(c2cccnc2)CO3)s1 (stereo unspecified) ?
-- reply 50.1

-- ask Quick check: INHIBITION of c1ccc(-c2nc(CN3CCc4c(ncn4C4CC4)C3)cs2)cc1 ?
-- reply 34.1

-- ask Quick check: INHIBITION of Cc1cccc(OCCNC(=O)CN2CCc3cncnc3C2)c1 ?
-- reply 22.3

-- ask Quick check: INHIBITION of CN1CC[C@H](N(Cc2ccccc2)Cc2ccccc2)C[C@H](O)C1 ?
-- reply 32.1

-- ask Quick check: INHIBITION of Cc1nc2ccccc2c(=O)n1CCCC(=O)N1CCNC(=O)CC1 ?
-- reply 4.37

-- ask Quick check: INHIBITION of COCCN1CCO[C@@H]2CN(Cc3ccc(C)o3)C[C@@H]2C1 ?
-- reply -0.554

---

Tested on: Plasmodium berghei
Measurement description: Screen against P. berghei liver stage (PbLuc), transformed with Luciferase, at 10uM
Assay type: functional, HepG2
Conditions: tested at 10 uM
Among all 69,000 compounds or so, about 8,600 (12%) showed an effect of 50% or more. For the sample, strong results were picked, then their nearest neighbours and some compounds at random.
Decision: INHIBITION beneath 20% gives true (1); INHIBITION meeting or exceeding 20% gives false (0).

-- ask Problem: For the compound Cc1nc(Nc2nncs2)cc(C2CNC2)n1 , is INHIBITION under 20%?
-- reply true (1)

-- ask Problem: For the compound O=c1cc(N2CCCC2)cnn1CCc1cccc(F)c1 , is INHIBITION under 20%?
-- reply false (0)

-- ask Problem: For the compound COc1ccnc(CN(C)C(=O)CSc2nnc(N)s2)c1 , is INHIBITION under 20%?
-- reply false (0)

-- ask Problem: For the compound Cc1cc(CN2CCCCC2Cn2cncn2)no1 (configuration not stated) , is INHIBITION under 20%?
-- reply false (0)

-- ask Problem: For the compound CS(=O)(=O)N1CC[C@H]2OCC[C@@]2(C(=O)NCc2ccccn2)C1 , is INHIBITION under 20%?
-- reply false (0)

-- ask Problem: For the compound CN(C)C(=O)CN1CC[C@H]2CN(S(C)(=O)=O)C[C@@H]2C1=O , is INHIBITION under 20%?
-- reply true (1)

-- ask Problem: For the compound Cc1ncsc1CCN(C)C1CCN(c2ncnc3[nH]cnc23)CC1 , is INHIBITION under 20%?
-- reply false (0)

-- ask Problem: For the compound O=c1cc(N2CCOCC2)cnn1CCc1ccc(F)cc1 , is INHIBITION under 20%?
-- reply true (1)

-- ask Problem: For the compound CCOC(=O)N1CCC(NC(=O)c2cccc(C3CCCNC3)c2)CC1 (configuration not stated) , is INHIBITION under 20%?
-- reply true (1)

-- ask Problem: For the compound Cc1cc(N(C)C)nc(C2COCCN2Cc2nccn2C)n1 (configuration not stated) , is INHIBITION under 20%?
-- reply false (0)

-- ask Problem: For the compound Cc1cnccc1CN(C)C1CCN(c2ncnc3[nH]cnc23)CC1 , is INHIBITION under 20%?
-- reply false (0)

The measurements presented in this section are drawn from ChEMBL document CHEMBL4513216.
